Tested on: Rattus norvegicus
Assay: in vivo activity was evaluated by measuring interval between bladder contractions (IC) after 3 hour. Also: test concentration or dose not given here.
Type: functional
endpointLabel: Delta IC (%)
Give bare numbers, in %.

In the examples that follow, each entry is paired with its recorded Delta IC.
molecule="CC(O)(C(=O)Nc1ccc(S(=O)(=O)c2ccncc2)cc1)C(F)(F)F (stereo unspecified)" endpointlabel="Delta IC" recordedvalue=76
molecule="CC(O)(C(=O)Nc1ccc(S(=O)(=O)c2ccncc2)c(O)c1)C(F)(F)F (stereo unspecified)" endpointlabel="Delta IC" recordedvalue=42
molecule="CC(O)(C(=O)Nc1ccc(S(=O)(=O)c2cccnc2)cc1)C(F)(F)F (stereo unspecified)" endpointlabel="Delta IC" recordedvalue=83
molecule="CC(O)(C(=O)Nc1ccc(C(=O)c2cccc(F)c2)cc1)C(F)(F)F (stereo unspecified)" endpointlabel="Delta IC" recordedvalue=56
molecule="Cc1cc(C(=O)c2ccccc2)ccc1NC(=O)C(C)(O)C(F)(F)F (stereo unspecified)" endpointlabel="Delta IC" recordedvalue=50

Asked: Tell me reported Delta IC for CN(c1ccccc1)S(=O)(=O)c1ccc(NC(=O)C(C)(O)C(F)(F)F)cc1 (stereo unspecified) , tested with Rattus norvegicus.
Given back: 33

====

Tested on: Rattus norvegicus
Assay: in vivo activity was evaluated by measuring interval between bladder contractions (IC) after 5 hour. Also: test concentration or dose not given here.
Format: functional
endpointLabel: Delta IC (%)
Numbers only, in %.

Here are 2 compounds together with their reported answers.
compound="CC(O)(C(=O)Nc1ccc(S(=O)(=O)c2cccnc2)cc1)C(F)(F)F (stereo unspecified)" assaytarget="Rattus norvegicus" recordedvalue=125
compound="Cc1cc(C(=O)c2ccccc2)ccc1NC(=O)C(C)(O)C(F)(F)F (stereo unspecified)" assaytarget="Rattus norvegicus" recordedvalue=71

Report Delta IC for every entry below.
1. CC(O)(C(=O)Nc1ccc(S(=O)(=O)c2ccncc2)c(O)c1)C(F)(F)F (stereo unspecified)
2. CC(O)(C(=O)Nc1ccc(S(=O)(=O)c2ccncc2)cc1)C(F)(F)F (stereo unspecified)
3. CC(O)(C(=O)Nc1ccc(C(=O)c2cccc(F)c2)cc1)C(F)(F)F (stereo unspecified)
4. CN(c1ccccc1)S(=O)(=O)c1ccc(NC(=O)C(C)(O)C(F)(F)F)cc1 (stereo unspecified)

Given back:
1. 95
2. 76
3. 61
4. 56

====

System: Rattus norvegicus
Test: in vivo activity was evaluated by measuring interval between bladder contractions (IC) after 1 hour.
Format: functional
endpointLabel: Delta IC (%)
Numbers only, in %.

Known results for compounds:
compound="CC(O)(C(=O)Nc1ccc(S(=O)(=O)c2ccncc2)c(O)c1)C(F)(F)F (centres undefined)" recordedvalue=25
compound="CC(O)(C(=O)Nc1ccc(S(=O)(=O)c2ccncc2)cc1)C(F)(F)F (centres undefined)" recordedvalue=20
compound="CC(O)(C(=O)Nc1ccc(S(=O)(=O)c2cccnc2)cc1)C(F)(F)F (centres undefined)" recordedvalue=64

Next:
Asked: Recorded Delta IC of CN(c1ccccc1)S(=O)(=O)c1ccc(NC(=O)C(C)(O)C(F)(F)F)cc1 (centres undefined) , please.
Given back: 30

Cited source: ChEMBL document CHEMBL1129399
